Measured aptazyme ON/OFF ratio, listed per entry.
B1: Pistol ribozyme (parent)
chain: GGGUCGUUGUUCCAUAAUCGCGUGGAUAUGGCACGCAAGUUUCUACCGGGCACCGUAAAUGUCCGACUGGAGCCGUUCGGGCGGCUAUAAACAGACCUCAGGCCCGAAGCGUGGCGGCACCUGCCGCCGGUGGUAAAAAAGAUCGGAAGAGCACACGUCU

variants of: B1; experiment: aptazyme ON/OFF ratio, guanine; higher = stronger switching; co-transcriptional cleavage with and without guanine
observed_property: aptazyme ON/OFF ratio

>>> print(df.to_string())
                mutation_descriptor      observed_property  measurement
 0       U7G U8A G9C U10A C12A C13G  aptazyme ON/OFF ratio         1.01
 1  U7G U8C G9U U10C U11A C12U C13U  aptazyme ON/OFF ratio          1.9
 2                    U7G U10C U11G  aptazyme ON/OFF ratio         1.22
 3  U7G U8G G9U U10G U11G C12G C13U  aptazyme ON/OFF ratio         1.14
 4       U7G U8G G9A U11C C12U C13A  aptazyme ON/OFF ratio         1.31
 5                     U7C U8A U10G  aptazyme ON/OFF ratio         1.37
 6               U7C U11A C12A C13G  aptazyme ON/OFF ratio         1.25
 7            U7C U8C G9U C12A C13U  aptazyme ON/OFF ratio         1.22
 8       U7C U8G G9A U10C C12G C13A  aptazyme ON/OFF ratio         1.13
 9      U8G G9C U10A U11A C12G C13U  aptazyme ON/OFF ratio         1.18
10       U7G U8A G9U U10C C12G C13U  aptazyme ON/OFF ratio         1.19
11  U7C U8A G9U U10C U11C C12U C13A  aptazyme ON/OFF ratio         1.03
12      U8C G9A U10G U11A C12A C13U  aptazyme ON/OFF ratio         1.15
13                     U7C U8G C13U  aptazyme ON/OFF ratio         2.24
14                U7A U8G U11G C13U  aptazyme ON/OFF ratio         1.31
15       U7C U8A G9U U10C U11A C13A  aptazyme ON/OFF ratio         1.15
16           U7A G9U U10C C12G C13U  aptazyme ON/OFF ratio          1.4
17                     U8G G9A U10A  aptazyme ON/OFF ratio         1.24
18           U7C U8C U10C U11A C13G  aptazyme ON/OFF ratio         1.18
19           U7A G9A U10G C12G C13G  aptazyme ON/OFF ratio         1.11
20            U7C U8A G9A U11C C12U  aptazyme ON/OFF ratio         1.13
21           U7A G9A U10A C12G C13U  aptazyme ON/OFF ratio         1.41
